experimental details: Binding affinity to methyl alpha-D-mannopyranoside (unknown origin) in MPOS buffer at pH 7.0 assessed as primary dissociation constant (Kd1) by ITC experiment
I'd be grateful if you could share measured pKd for these entries.
Scale explanation: pKd corresponds to minus log10 of a concentration expressed in moles per litre.

[ask] Need pKd, item `CN[C@@H]1[C@H](O[C@@H]2OC[C@@H](O)[C@H](O)[C@H]2O)[C@@H](O)[C@H](O[C@H]2c3cc(C)c(C(=O)N[C@H](C)C(N)=O)c(O)c3-c3c(cc4c(c3O)C(=O)c3cc(OC)cc(O)c3C4=O)[C@@H]2O)O[C@@H]1C`
[reply] 3.66

[ask] Any idea what its pKd is? The compound is `CNC(=O)[C@@H](C)NC(=O)c1c(C)cc2c(c1O)-c1c(cc3c(c1O)C(=O)c1cc(OC)cc(O)c1C3=O)[C@H](O)[C@H]2O[C@@H]1O[C@H](C)[C@H](NC)[C@H](O[C@@H]2OC[C@@H](O)[C@H](O)[C@H]2O)[C@H]1O`
[reply] 3.07

[ask] What does the data say about its pKd? Entry: `CN[C@@H]1[C@H](O[C@@H]2OC[C@@H](O)[C@H](O)[C@H]2O)[C@@H](O)[C@H](O[C@H]2c3cc(C)c(C(=O)N[C@H](C)C(=O)N(C)O)c(O)c3-c3c(cc4c(c3O)C(=O)c3cc(OC)cc(O)c3C4=O)[C@@H]2O)O[C@@H]1C`
[reply] 3.74

[ask] Data request, read-out pKd, for `CN[C@@H]1[C@H](O[C@@H]2OC[C@@H](O)[C@H](O)[C@H]2O)[C@@H](O)[C@H](O[C@H]2c3cc(C)c(C(=O)N[C@H](C)C(=O)O)c(O)c3-c3c(cc4c(c3O)C(=O)c3cc(OC)cc(O)c3C4=O)[C@@H]2O)O[C@@H]1C`
[reply] 4.02

[ask] Data request, read-out pKd, for `CN[C@@H]1[C@H](O[C@@H]2OC[C@@H](O)[C@H](O)[C@H]2O)[C@@H](O)[C@H](O[C@H]2c3cc(C)c(C(=O)N[C@H](C)C(=O)NN)c(O)c3-c3c(cc4c(c3O)C(=O)c3cc(OC)cc(O)c3C4=O)[C@@H]2O)O[C@@H]1C`
[reply] 3.52

[ask] Need pKd, item `CN[C@@H]1[C@H](O[C@@H]2OC[C@@H](O)[C@H](O)[C@H]2O)[C@@H](O)[C@H](O[C@H]2c3cc(C)c(C(=O)N[C@H](C)C(=O)NOC)c(O)c3-c3c(cc4c(c3O)C(=O)c3cc(OC)cc(O)c3C4=O)[C@@H]2O)O[C@@H]1C`
[reply] 3.44

[ask] Which measured pKd value corresponds to `CN[C@@H]1[C@H](O[C@@H]2OC[C@@H](O)[C@H](O)[C@H]2O)[C@@H](O)[C@H](O[C@H]2c3cc(C)c(C(=O)N[C@H](C)C(=O)NO)c(O)c3-c3c(cc4c(c3O)C(=O)c3cc(OC)cc(O)c3C4=O)[C@@H]2O)O[C@@H]1C` ?
[reply] 4.12

[ask] Need pKd of `CN[C@@H]1[C@H](O[C@@H]2OC[C@@H](O)[C@H](O)[C@H]2O)[C@@H](O)[C@H](O[C@H]2c3cc(C)c(C(=O)N[C@H](C)C(=O)N(C)OC)c(O)c3-c3c(cc4c(c3O)C(=O)c3cc(OC)cc(O)c3C4=O)[C@@H]2O)O[C@@H]1C` , thanks.
[reply] 3.47

---

Exercise: for every item that follows, state its recorded Kd.
experimental details: Binding affinity to methyl alpha-D-mannopyranoside (unknown origin) in MPOS buffer at pH 7.0 assessed as secondary dissociation constant (Kd2) by ITC experiment
# unit: mM | format: bare number

[ask] For the compound `CN[C@@H]1[C@H](O[C@@H]2OC[C@@H](O)[C@H](O)[C@H]2O)[C@@H](O)[C@H](O[C@H]2c3cc(C)c(C(=O)N[C@H](C)C(=O)NOC)c(O)c3-c3c(cc4c(c3O)C(=O)c3cc(OC)cc(O)c3C4=O)[C@@H]2O)O[C@@H]1C` , what Kd is on record?
[reply] 5.3

[ask] So what does the record say about Kd for `CN[C@@H]1[C@H](O[C@@H]2OC[C@@H](O)[C@H](O)[C@H]2O)[C@@H](O)[C@H](O[C@H]2c3cc(C)c(C(=O)N[C@H](C)C(=O)NN)c(O)c3-c3c(cc4c(c3O)C(=O)c3cc(OC)cc(O)c3C4=O)[C@@H]2O)O[C@@H]1C` ?
[reply] 9.8

[ask] Suppose we examine the compound CN[C@@H]1[C@H](O[C@@H]2OC[C@@H](O)[C@H](O)[C@H]2O)[C@@H](O)[C@H](O[C@H]2c3cc(C)c(C(=O)N[C@H](C)C(=O)O)c(O)c3-c3c(cc4c(c3O)C(=O)c3cc(OC)cc(O)c3C4=O)[C@@H]2O)O[C@@H]1C [PRADIMICIN A] ; what Kd value has been reported?
[reply] 3.8

[ask] I'd like to know its Kd. The compound in question is `CNC(=O)[C@@H](C)NC(=O)c1c(C)cc2c(c1O)-c1c(cc3c(c1O)C(=O)c1cc(OC)cc(O)c1C3=O)[C@H](O)[C@H]2O[C@@H]1O[C@H](C)[C@H](NC)[C@H](O[C@@H]2OC[C@@H](O)[C@H](O)[C@H]2O)[C@H]1O`
[reply] 6.5

---

System: Diutina rugosa
experimental details: Antifungal activity against Candida rugosa AJ14513 assessed as inhibition of fungal growth incubated for 48 hrs
Assay type: functional
outcome measure: MIC
Give the value; after it, write the unit.

[ask] I'm curious: which MIC was measured for CN[C@@H]1[C@H](O[C@@H]2OC[C@@H](O)[C@H](O)[C@H]2O)[C@@H](O)[C@H](O[C@H]2c3cc(C)c(C(=O)N[C@H](C)C(=O)O)c(O)c3-c3c(cc4c(c3O)C(=O)c3cc(OC)cc(O)c3C4=O)[C@@H]2O)O[C@@H]1C [PRADIMICIN A] tested on Diutina rugosa?
[reply] 4 µg/mL

[ask] I'm curious: which MIC was measured for `CN[C@@H]1[C@H](O[C@@H]2OC[C@@H](O)[C@H](O)[C@H]2O)[C@@H](O)[C@H](O[C@H]2c3cc(C)c(C(=O)N[C@H](C)C(=O)N(C)OC)c(O)c3-c3c(cc4c(c3O)C(=O)c3cc(OC)cc(O)c3C4=O)[C@@H]2O)O[C@@H]1C` tested on Diutina rugosa?
[reply] 16 µg/mL

[ask] Request: MIC, test system Diutina rugosa, entry `CN[C@@H]1[C@H](O[C@@H]2OC[C@@H](O)[C@H](O)[C@H]2O)[C@@H](O)[C@H](O[C@H]2c3cc(C)c(C(=O)N[C@H](C)C(=O)N(C)O)c(O)c3-c3c(cc4c(c3O)C(=O)c3cc(OC)cc(O)c3C4=O)[C@@H]2O)O[C@@H]1C`
[reply] 16 µg/mL

[ask] Find MIC (Diutina rugosa) for the entry `CNC(=O)[C@@H](C)NC(=O)c1c(C)cc2c(c1O)-c1c(cc3c(c1O)C(=O)c1cc(OC)cc(O)c1C3=O)[C@H](O)[C@H]2O[C@@H]1O[C@H](C)[C@H](NC)[C@H](O[C@@H]2OC[C@@H](O)[C@H](O)[C@H]2O)[C@H]1O`
[reply] 16 µg/mL

[ask] Request - read-out MIC | tested on Diutina rugosa | molecule `CN[C@@H]1[C@H](O[C@@H]2OC[C@@H](O)[C@H](O)[C@H]2O)[C@@H](O)[C@H](O[C@H]2c3cc(C)c(C(=O)N[C@H](C)C(=O)NN)c(O)c3-c3c(cc4c(c3O)C(=O)c3cc(OC)cc(O)c3C4=O)[C@@H]2O)O[C@@H]1C`
[reply] 16 µg/mL

[ask] API: value(readout=MIC, system=Diutina rugosa) for record `CN[C@@H]1[C@H](O[C@@H]2OC[C@@H](O)[C@H](O)[C@H]2O)[C@@H](O)[C@H](O[C@H]2c3cc(C)c(C(=O)N[C@H](C)C(=O)NOC)c(O)c3-c3c(cc4c(c3O)C(=O)c3cc(OC)cc(O)c3C4=O)[C@@H]2O)O[C@@H]1C`
[reply] 16 µg/mL

[ask] What reported MIC corresponds to `CN[C@@H]1[C@H](O[C@@H]2OC[C@@H](O)[C@H](O)[C@H]2O)[C@@H](O)[C@H](O[C@H]2c3cc(C)c(C(=O)N[C@H](C)C(N)=O)c(O)c3-c3c(cc4c(c3O)C(=O)c3cc(OC)cc(O)c3C4=O)[C@@H]2O)O[C@@H]1C` on Diutina rugosa?
[reply] 16 µg/mL

[ask] Write down the reported MIC of `CN[C@@H]1[C@H](O[C@@H]2OC[C@@H](O)[C@H](O)[C@H]2O)[C@@H](O)[C@H](O[C@H]2c3cc(C)c(C(=O)N[C@H](C)C(=O)NCCO)c(O)c3-c3c(cc4c(c3O)C(=O)c3cc(OC)cc(O)c3C4=O)[C@@H]2O)O[C@@H]1C` , test system: Diutina rugosa.
[reply] 16 µg/mL

[ask] Could you share what MIC was measured for `CN[C@@H]1[C@H](O[C@@H]2OC[C@@H](O)[C@H](O)[C@H]2O)[C@@H](O)[C@H](O[C@H]2c3cc(C)c(C(=O)N[C@H](C)C(=O)NO)c(O)c3-c3c(cc4c(c3O)C(=O)c3cc(OC)cc(O)c3C4=O)[C@@H]2O)O[C@@H]1C` , tested on Diutina rugosa?
[reply] 8 µg/mL
